Target: T1, EpCAM on DU145, PC3 and MCF-7 cancer cells (Homo sapiens (DU145, PC3, MCF-7), UniProt P16422)
T1 construct: Epithelial cell adhesion molecule (EpCAM), endogenous on the three EpCAM+ human cancer cell lines DU145, PC3 and MCF-7; also called Epithelial cell adhesion molecule; source: endogenous, on DU145, PC3 and MCF-7 cells
T1 sequence (P16422 24-314): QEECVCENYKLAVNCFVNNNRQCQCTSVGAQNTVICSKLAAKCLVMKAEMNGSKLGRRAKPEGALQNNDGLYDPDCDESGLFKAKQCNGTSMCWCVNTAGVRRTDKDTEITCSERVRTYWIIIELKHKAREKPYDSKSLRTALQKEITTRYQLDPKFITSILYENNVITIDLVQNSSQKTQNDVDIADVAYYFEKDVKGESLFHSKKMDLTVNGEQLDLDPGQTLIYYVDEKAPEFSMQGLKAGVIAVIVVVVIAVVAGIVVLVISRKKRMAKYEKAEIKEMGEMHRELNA
Test: flow cytometry on cells; cells (1 × 10^6/mL) incubated with the sdAbs at 4°C for 1 h; detection with FITC-conjugated protein A; 293T and 3T3 cells as negative controls
Conditions: one partner purified

Binder: aEP5A5 (VHH, fully human VH single-domain antibody from a phage library (Source BioScience); Human VH-only sdAb (not camelid), not Fc-fused; cloned into pET-22b by Not I and Nco I sites; also called anti-EpCAM sdAb aEP5A5; source: E. coli BL21 (DE3), purified (Ni-NTA)) VHH: QVQLLESGGGLVQPGGSLRLSCAASGVRFSNEVMAWVRQAPGKGLEWVSGIEMKNGSTYYADSVKGRFTISRDNSKNTLYLQMNSLRAEDTAVYYCASWGHSRRQQSKFNSWGQGTLVTVSS
binding result: binds

Binder: aEP4D11 (VHH, fully human VH single-domain antibody from a phage library (Source BioScience); Human VH-only sdAb (not camelid), not Fc-fused; cloned into pET-22b by Not I and Nco I sites; also called anti-EpCAM sdAb aEP4D11; source: E. coli BL21 (DE3), purified (Ni-NTA)) VHH: QVQLLESGGGLVQPGGSLRLSCAASGVKIIPKSMAWVRQAPGKGLEWVSTIETADGSTYYADSVKGRFTISRDNSKNTLYLQMNSLRAEDTAVYYCASVSRSRTNSLKSWGQGTLVTVSS
binding result: binds
